Measurement Target: RecBCD enzyme subunit RecC (Escherichia coli (strain K12)) + RecBCD enzyme subunit RecB (Escherichia coli (strain K12)) (UniProt P07648+P08394)
Sequence (P07648 whole entry, looked up): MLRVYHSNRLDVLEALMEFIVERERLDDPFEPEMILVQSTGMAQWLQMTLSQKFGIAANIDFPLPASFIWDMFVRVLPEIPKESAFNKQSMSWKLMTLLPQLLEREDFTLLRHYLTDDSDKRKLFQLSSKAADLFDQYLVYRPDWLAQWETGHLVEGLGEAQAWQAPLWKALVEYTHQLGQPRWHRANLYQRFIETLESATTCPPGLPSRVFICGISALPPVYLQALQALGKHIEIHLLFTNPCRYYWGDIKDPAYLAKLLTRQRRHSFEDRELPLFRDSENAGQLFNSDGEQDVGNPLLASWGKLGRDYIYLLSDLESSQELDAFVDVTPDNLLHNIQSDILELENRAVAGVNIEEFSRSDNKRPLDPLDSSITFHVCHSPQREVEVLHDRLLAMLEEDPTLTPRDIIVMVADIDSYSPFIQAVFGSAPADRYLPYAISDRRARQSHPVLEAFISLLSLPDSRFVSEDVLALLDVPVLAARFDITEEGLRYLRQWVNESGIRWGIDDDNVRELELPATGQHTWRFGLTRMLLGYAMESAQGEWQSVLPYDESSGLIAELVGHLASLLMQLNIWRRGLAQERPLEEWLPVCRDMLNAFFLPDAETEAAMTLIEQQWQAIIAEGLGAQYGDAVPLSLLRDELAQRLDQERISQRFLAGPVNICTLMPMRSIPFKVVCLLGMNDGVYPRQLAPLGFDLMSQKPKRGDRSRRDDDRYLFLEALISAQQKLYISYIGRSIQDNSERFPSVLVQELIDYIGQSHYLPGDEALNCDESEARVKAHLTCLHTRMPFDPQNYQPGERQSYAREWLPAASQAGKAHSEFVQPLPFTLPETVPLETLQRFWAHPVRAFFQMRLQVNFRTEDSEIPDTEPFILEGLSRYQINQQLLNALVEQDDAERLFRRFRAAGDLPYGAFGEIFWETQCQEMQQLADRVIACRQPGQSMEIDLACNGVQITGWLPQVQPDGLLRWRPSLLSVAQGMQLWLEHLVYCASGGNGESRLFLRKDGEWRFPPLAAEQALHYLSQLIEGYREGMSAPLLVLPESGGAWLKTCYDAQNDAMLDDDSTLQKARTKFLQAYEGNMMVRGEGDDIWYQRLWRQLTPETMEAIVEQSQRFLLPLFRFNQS
Sequence (P08394 whole entry, looked up): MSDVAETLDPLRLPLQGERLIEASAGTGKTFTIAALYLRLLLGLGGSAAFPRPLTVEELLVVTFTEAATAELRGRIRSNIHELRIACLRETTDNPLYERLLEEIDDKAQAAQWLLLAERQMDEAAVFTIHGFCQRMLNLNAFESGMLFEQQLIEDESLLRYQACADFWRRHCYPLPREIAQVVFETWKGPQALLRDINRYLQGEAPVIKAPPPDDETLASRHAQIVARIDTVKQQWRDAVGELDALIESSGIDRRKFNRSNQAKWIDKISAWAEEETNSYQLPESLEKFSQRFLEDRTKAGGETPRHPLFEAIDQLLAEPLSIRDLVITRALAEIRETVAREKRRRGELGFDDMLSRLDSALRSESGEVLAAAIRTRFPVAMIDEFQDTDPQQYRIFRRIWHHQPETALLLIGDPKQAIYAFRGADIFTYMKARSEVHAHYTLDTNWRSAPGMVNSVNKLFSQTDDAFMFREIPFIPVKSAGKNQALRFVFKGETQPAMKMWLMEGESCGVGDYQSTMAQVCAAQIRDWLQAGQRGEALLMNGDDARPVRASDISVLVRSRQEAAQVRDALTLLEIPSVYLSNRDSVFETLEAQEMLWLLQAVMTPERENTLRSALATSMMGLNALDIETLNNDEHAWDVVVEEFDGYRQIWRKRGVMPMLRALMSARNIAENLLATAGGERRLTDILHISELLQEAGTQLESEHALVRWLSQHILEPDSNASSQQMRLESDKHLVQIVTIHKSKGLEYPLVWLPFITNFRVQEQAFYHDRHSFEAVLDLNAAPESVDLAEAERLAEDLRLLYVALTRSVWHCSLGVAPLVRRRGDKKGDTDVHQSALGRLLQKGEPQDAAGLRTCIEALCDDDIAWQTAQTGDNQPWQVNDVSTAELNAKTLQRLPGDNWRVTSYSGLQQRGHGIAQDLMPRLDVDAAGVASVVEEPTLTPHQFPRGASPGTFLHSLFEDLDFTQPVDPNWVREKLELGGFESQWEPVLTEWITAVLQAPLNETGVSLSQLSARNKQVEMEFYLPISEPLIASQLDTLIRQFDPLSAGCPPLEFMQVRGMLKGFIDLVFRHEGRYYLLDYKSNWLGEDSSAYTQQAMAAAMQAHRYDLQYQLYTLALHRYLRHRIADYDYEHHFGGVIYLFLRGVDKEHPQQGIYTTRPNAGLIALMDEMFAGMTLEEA
Assay Remarks: RecBCD dsDNA exonuclease activity remaining – biochemical, radioactivity readout, 100 µM single dose, counter-screen for AddAB inhibitor project, late-stage follow-up (AID 623921)
Test Parameters: purified RecBCD, [3H] dsDNA nuclease, TCA-soluble radioactivity; at 100 µM; stronger effect = lower value
# YES = remaining enzyme activity below 60% (exclusive); NO = remaining enzyme activity at/above 60%

In: For this compound, is remaining enzyme activity lower than 60%? COC(=O)c1c(-c2cccc(C)c2)csc1NC(=O)c1cnccn1
Out: NO

In: For this compound, is remaining enzyme activity lower than 60%? CCn1cc(C(=O)O)c(=O)c2cnc(N3CCN(C(=S)NC)CC3)nc21
Out: YES

In: For this compound, is remaining enzyme activity lower than 60%? N#Cc1c(NC(=O)c2ccc(-c3ccccc3[N+](=O)[O-])o2)sc2c1CCCC2
Out: NO

In: For this compound, is remaining enzyme activity lower than 60%? C=CCNC(=S)N1CCN(c2ncc3c(=O)c(C(=O)O)cn(CC)c3n2)CC1
Out: NO

In: For this compound, is remaining enzyme activity lower than 60%? N#Cc1c(NC(=O)c2ccccc2C(=O)O)sc2c1CCCC2
Out: NO

In: For this compound, is remaining enzyme activity lower than 60%? CC1CCc2c(sc(NC(=O)c3cccs3)c2C#N)C1 (stereo unspecified)
Out: NO

In: For this compound, is remaining enzyme activity lower than 60%? CCn1cc(C(=O)O)c(=O)c2cnc(N3CCN(C(=S)Nc4ccc5c(c4)OCCO5)CC3)nc21
Out: YES

In: For this compound, is remaining enzyme activity lower than 60%? CC1(C)Cc2c(sc(NC(=O)c3ccco3)c2C#N)CO1
Out: NO

In: For this compound, is remaining enzyme activity lower than 60%? CC1CCc2c(sc(NC(=O)c3ccc([N+](=O)[O-])o3)c2N)C1 (stereo unspecified)
Out: NO

In: For this compound, is remaining enzyme activity lower than 60%? Cc1ccc(C(=O)Nc2sc3c(c2C#N)CCC3)o1
Out: NO

In: For this compound, is remaining enzyme activity lower than 60%? CCn1cc(C(=O)O)c(=O)c2cnc(N3CCN(C(=S)NC(C)c4ccccc4)CC3)nc21 (stereo unspecified)
Out: YES

In: For this compound, is remaining enzyme activity lower than 60%? Cc1sc(NC(=O)c2ccc(Br)o2)c(C#N)c1C
Out: YES

In: For this compound, is remaining enzyme activity lower than 60%? CCn1cc(C(=O)O)c(=O)c2cnc(N3CCN(C(=S)Nc4ccccc4Cl)CC3)nc21
Out: YES

In: For this compound, is remaining enzyme activity lower than 60%? CC1CCc2c(sc(NC(=O)c3cnccn3)c2C#N)C1 (stereo unspecified)
Out: NO

In: For this compound, is remaining enzyme activity lower than 60%? Cc1sc(NC(=O)c2cnccn2)c(C(=O)OC(C)C)c1-c1ccccc1
Out: YES

In: For this compound, is remaining enzyme activity lower than 60%? Nc1c(NC(=O)c2ccc([N+](=O)[O-])o2)sc2c1CCCC2
Out: NO

In: For this compound, is remaining enzyme activity lower than 60%? N#Cc1c(NC(=O)c2ccco2)sc2c1CCC2
Out: YES

In: For this compound, is remaining enzyme activity lower than 60%? COC(=O)c1c(-c2ccccc2)csc1NC(=O)c1cnccn1
Out: YES

In: For this compound, is remaining enzyme activity lower than 60%? NC(=O)c1c(NC(=O)c2cnccn2)sc2c1CCCC2
Out: NO

In: For this compound, is remaining enzyme activity lower than 60%? CCn1cc(C(=O)O)c(=O)c2cc(F)c(N3CCN(C(=S)Nc4cccc(C(F)(F)F)c4)CC3)cc21
Out: YES

In: For this compound, is remaining enzyme activity lower than 60%? CSc1ncc(Cl)c(C(=O)Nc2sc3c(c2C(=O)NC2CCS(=O)(=O)C2)CCC(C)C3)n1 (stereo unspecified)
Out: NO

In: For this compound, is remaining enzyme activity lower than 60%? CCn1cc(C(=O)O)c(=O)c2cnc(N3CCN(C(=S)NC(=O)c4ccccc4Cl)CC3)nc21
Out: YES

In: For this compound, is remaining enzyme activity lower than 60%? CCn1cc(C(=O)O)c(=O)c2cnc(N3CCN(C(=S)NC(=O)c4cccc(C)c4)CC3)nc21
Out: YES

In: For this compound, is remaining enzyme activity lower than 60%? CCn1cc(C(=O)O)c(=O)c2cnc(N3CCN(C(=S)Nc4ccccc4F)CC3)nc21
Out: YES

In: For this compound, is remaining enzyme activity lower than 60%? CCn1cc(C(=O)O)c(=O)c2cnc(N3CCN(C(=S)Nc4ccc(Cl)cc4)CC3)nc21
Out: YES

In: For this compound, is remaining enzyme activity lower than 60%? CCn1cc(C(=O)O)c(=O)c2cnc(N3CCN(C(=O)Nc4ccccc4)CC3)nc21
Out: NO

In: For this compound, is remaining enzyme activity lower than 60%? CCn1cc(C(=O)O)c(=O)c2cnc(N3CCN(C(=S)Nc4cccc(C(F)(F)F)c4)CC3)nc21
Out: YES

In: For this compound, is remaining enzyme activity lower than 60%? CSc1ncc(Cl)c(C(=O)Nc2sc3c(c2C#N)CCC(C)C3)n1 (stereo unspecified)
Out: NO

In: For this compound, is remaining enzyme activity lower than 60%? CCn1cc(C(=O)O)c(=O)c2cnc(N3CCN(C(=S)Nc4ccc(F)cc4)CC3)nc21
Out: YES

In: For this compound, is remaining enzyme activity lower than 60%? N#Cc1c(NC(=O)c2cnccn2)sc2c1CCCCCC2
Out: NO

In: For this compound, is remaining enzyme activity lower than 60%? CC1CCc2c(sc(NC(=O)c3ccc([N+](=O)[O-])o3)c2C#N)C1 (stereo unspecified)
Out: NO

In: For this compound, is remaining enzyme activity lower than 60%? CCn1cc(C(=O)O)c(=O)c2cnc(N3CCN(C(=S)NC(=O)c4ccco4)CC3)nc21
Out: NO

In: For this compound, is remaining enzyme activity lower than 60%? CCn1cc(C(=O)O)c(=O)c2cnc(N3CCN(C(=S)Nc4ccccc4OC)CC3)nc21
Out: YES

In: For this compound, is remaining enzyme activity lower than 60%? CCn1cc(C(=O)O)c(=O)c2cnc(N3CCN(C(=S)Nc4ccc5c(c4)OCO5)CC3)nc21
Out: YES

In: For this compound, is remaining enzyme activity lower than 60%? CNC(=O)c1c(NC(=O)c2nc(SCc3ccccc3)ncc2Cl)sc2c1CCCC2
Out: YES

In: For this compound, is remaining enzyme activity lower than 60%? CCn1cc(C(=O)O)c(=O)c2cnc(N3CCNCC3)nc21
Out: NO

In: For this compound, is remaining enzyme activity lower than 60%? N#Cc1c(NC(=O)c2ccccc2)sc2c1CCC2
Out: NO

In: For this compound, is remaining enzyme activity lower than 60%? CCn1cc(C(=O)O)c(=O)c2cnc(N3CCN(C(=S)Nc4ccccc4C)CC3)nc21
Out: YES

In: For this compound, is remaining enzyme activity lower than 60%? CCn1cc(C(=O)O)c(=O)c2cc(F)c(N3CCN(C(=S)Nc4ccccc4C(F)(F)F)CC3)cc21
Out: YES

In: For this compound, is remaining enzyme activity lower than 60%? N#Cc1c(NC(=O)c2ccc([N+](=O)[O-])o2)sc2c1CCCC2
Out: NO

In: For this compound, is remaining enzyme activity lower than 60%? CCn1cc(C(=O)O)c(=O)c2cnc(N3CCN(C(=S)NC4CC5CCC4C5)CC3)nc21 (stereo unspecified)
Out: YES
